Origin of measurements: ChEMBL document CHEMBL2440115

- TARGET_DESC: Casein kinase II (Homo sapiens, UniProt P19784+P67870+P68400)
- Sequence (P67870 whole entry): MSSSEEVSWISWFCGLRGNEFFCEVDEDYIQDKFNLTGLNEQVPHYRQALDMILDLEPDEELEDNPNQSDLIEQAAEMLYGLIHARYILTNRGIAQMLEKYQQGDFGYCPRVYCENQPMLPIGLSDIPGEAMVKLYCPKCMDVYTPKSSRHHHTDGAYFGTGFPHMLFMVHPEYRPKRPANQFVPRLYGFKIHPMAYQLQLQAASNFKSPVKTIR
- Sequence (P68400 whole entry): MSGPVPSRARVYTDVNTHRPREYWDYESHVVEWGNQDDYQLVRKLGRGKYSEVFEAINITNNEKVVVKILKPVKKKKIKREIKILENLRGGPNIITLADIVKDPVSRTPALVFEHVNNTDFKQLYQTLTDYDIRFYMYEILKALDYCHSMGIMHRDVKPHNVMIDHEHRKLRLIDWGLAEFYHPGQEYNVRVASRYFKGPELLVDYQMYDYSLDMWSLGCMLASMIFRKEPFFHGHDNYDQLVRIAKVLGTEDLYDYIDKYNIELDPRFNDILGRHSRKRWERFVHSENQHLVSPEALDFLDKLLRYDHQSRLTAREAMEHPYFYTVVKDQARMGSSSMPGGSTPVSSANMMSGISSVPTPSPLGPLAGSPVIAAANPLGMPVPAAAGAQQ
- Sequence (P19784 whole entry): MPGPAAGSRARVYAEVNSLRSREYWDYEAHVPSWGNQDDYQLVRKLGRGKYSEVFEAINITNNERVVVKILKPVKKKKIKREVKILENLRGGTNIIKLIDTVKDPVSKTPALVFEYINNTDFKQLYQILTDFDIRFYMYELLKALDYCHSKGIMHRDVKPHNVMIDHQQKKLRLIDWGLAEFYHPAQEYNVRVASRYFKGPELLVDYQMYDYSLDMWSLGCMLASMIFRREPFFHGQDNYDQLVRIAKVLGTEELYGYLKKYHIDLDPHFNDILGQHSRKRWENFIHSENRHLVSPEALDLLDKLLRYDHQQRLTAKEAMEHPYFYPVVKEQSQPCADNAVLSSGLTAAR
- TEST_SUMMARY: Inhibition of recombinant human CK2 using RRRDDDSDDD as substrate after 20 mins by beta counting analysis in presence of [gamma-labeled 32P]ATP
- Type: protein-complex assay
pIC50: −log10 of the molar value.
// reported pIC50 for each item listed

Reference set (4 entries):
COc1ccc(-c2cc(=O)c3cc(C)cc(C)c3o2)cc1OC : < 4.52
COc1ccc(-c2oc3ccccc3c(=O)c2O)cc1 : < 4.52
Cc1ccc(-c2oc3ccc(C)cc3c(=O)c2O)cc1 : < 4.52
Cc1ccc(-c2cc(=O)c3cc(C)cc(C)c3o2)cc1 : 4.68

Next up:
## Input For the compound shown here, COc1ccc(-c2oc3ccc(C)cc3c(=O)c2O)cc1OC , give the reported pIC50.
## Output < 4.52

----------
// reported Activity for each item listed
- TARGET_DESC: Casein kinase II (Homo sapiens) (UniProt P67870+P68400+P19784)
- TEST_SUMMARY: Inhibition of recombinant human CK2 using RRRDDDSDDD as substrate assessed as residual activity at 10 uM after 20 mins by beta counting analysis in presence of [gamma-labeled 32P]ATP relative to control
- Assay type: protein-complex assay
Respond with the bare value in %.

Reference set (2 entries):
COc1cc(-c2cc(=O)c3c(CN4CCCCC4)c(O)ccc3o2)cc(OC)c1OC : 74
COc1ccc(-c2cc(=O)c3c(CN4CCC(C)CC4)c(O)ccc3o2)cc1 : 68

Next up:
## Input For the molecule shown here, Cc1ccc2oc(-c3ccc(Br)cc3)c(O)c(=O)c2c1 , give the reported Activity.
## Output 65
